molecular target: T1, Processed stabilized hMPV PreF trimer (115BV) (human metapneumovirus, strain B2); assay: BLI, mAb on anti-human Fc sensor
T1 construct: also called Processed hMPV PreF trimer; processed PreF
measured property: Octet binding response (nm)
Answer in nm, number only, no unit symbol.

Octet binding response for M3A05 (antibody, V domains shown, IgG) VH: QITLKESGPTLVKPTQTLTLTCTFSGFSLNTGGVSVGWIRQPPGKALEWLALIYWDGDKRYSPSLKSRLTITKDTSKNQVVFTMTNMDPVDTATYYCAHRENSAYIDFWGQGTLVTVSS VL: QSVLTQPPSVSAAPGQKVTISCSGSSSNIGNNYVSWYQQLPGAAPKLLIYDNNKRPSGIPDRFSGSKSGTSASLGITGLQTGDEADYYCGTWDSSLSVGFYVFGTGTKVTVL is 0.0071

For M7D5 (antibody, V domains shown, IgG) VH: QVQLVQSGAEVKKPGSSVKVSCKASGGTLSNYAISWVRQAPGQGLEWMGGIIPIFGTAMYAHNFQDRVTFTADESTNTVYMAVSRLTSDDTAVYYCAQDRTVTKYAHGLDVWGQGTTVTVSS VL: DIQMTQSPSSLSASVGDRITITCPASQSLLTYLNWYQQKPGKAPKLLIYSASELPSGVPSRFSGSGSGTEFTLTVTGLQPDDFATYYCQQSHTTPLTFGGGTKVEIKR the binder record lists Octet binding response as 0.347

Provenance of the data: patent US20240327502A1
